Quantity Kind: melting point

>  <Compound>
COc1ccc(C=CC(=O)c2ccc(OC)c(OC)c2OC)cc1O [DR8]

>  <Quantity Kind>
melting point

>  <Measurement>
85 to 86 °C

$$$$
>  <Compound>
CO/C(=C\c1ccc(OC)c(F)c1)C(=O)c1cc(OC)c(OC)c(OC)c1 [DR14]

>  <Quantity Kind>
melting point

>  <Measurement>
110 to 112 °C

$$$$
>  <Compound>
COc1ccc(/C=C/C(=O)c2cc(OC)c(OC)c(OC)c2)cc1N [MW65]

>  <Quantity Kind>
melting point

>  <Measurement>
90 to 91 °C

$$$$
>  <Compound>
CO/C(=C\c1ccc(OC)c(O)c1)C(=O)c1cc(OC)c(OC)c(OC)c1 [DR13]

>  <Quantity Kind>
melting point

>  <Measurement>
120 to 122 °C

$$$$
>  <Compound>
COc1ccc(-c2cc(=O)c3cc(OC)c(OC)c(OC)c3o2)cc1O [DR36]

>  <Quantity Kind>
melting point

>  <Measurement>
199 to 200 °C

$$$$
>  <Compound>
COc1ccc(/C=C2\Oc3c(cc(OC)c(OC)c3OC)C2=O)cc1O [DR27]

>  <Quantity Kind>
melting point

>  <Measurement>
192 to 193 °C

$$$$

* * *

Test system: tubulin
Assay: Tubulin assembly inhibition assay
Assay type: biochemical
Conditions: tubulin assembly assay, Table 14; read-out: IC(TA)50

>  <Compound>
COc1ccc(/C=C(\C)C(O)c2cc(OC)c(OC)c(OC)c2)cc1O (centres unmarked) [MW70]

>  <IC50>
> 10 µM

$$$$
>  <Compound>
COc1ccc(/C=C(\C)C(=O)c2cc(OC)c(OC)c(OC)c2)cc1[N+](=O)[O-] [MW68]

>  <IC50>
> 10 µM

$$$$
>  <Compound>
COc1ccc(C2CC(=O)c3cc(OC)c(OC)c(OC)c32)cc1N (centres unmarked) [MW74]

>  <IC50>
~10 µM

$$$$
>  <Compound>
COc1ccc(CC(C)C(=O)c2cc(OC)c(OC)c(OC)c2)cc1O (centres unmarked) [MW71]

>  <IC50>
4 µM

$$$$
>  <Compound>
COc1ccc(C2CCc3cc(OC)c(OC)c(OC)c32)cc1N (centres unmarked) [MW82]

>  <IC50>
> 10 µM

$$$$

Where do the numbers come from? From patent US20050065213A1.
